biological target: HIV integrase (Human immunodeficiency virus type 1 group M subtype B, UniProt P12497, F1332H); construct: HIV integrase full length gene (J. Virol., 67, 425-437 (1993)) in which phenylalanine at codon 185 was substituted by histidine; made in house; host or cells: Escherichia coli BL21(DE3); test: Determination of enzyme (HIV integrase) inhibitory activity; format: biochemical; conditions: recombinant integrase protein (F185H), donor DNA/target DNA, absorbance at 450 nm
Where a name gives a salt, the structure may show the parent alone.
Kindly supply the reported pIC50 values for the records listed here.
One number for each entry, as −log10 of the molar value.

Observe how each entry below is paired with its result.
molecule	pIC50
COc1cc2c(cc1Cc1cccc(Cl)c1F)c(=O)c(C(=O)O)cn2[C@H](CO)C1CCOCC1 [Example 2-1]	8.34
CC(C)[C@@H](CO)n1cc(C(=O)O)c(=O)c2cc(Cc3cccc(Cl)c3F)c(N3CCC(O)CC3)cc21 [Example 4-21]	8.18
CC(C)[C@@H](CO)n1cc(C(=O)O)c(=O)c2cc(Cc3cccc(Cl)c3F)c(OC3CCN(C)CC3)cc21 [Example 4-14]	8.27

Working through the 3 molecules below one at a time, give pIC50 for each.
1. CC(C)[C@@H](CO)n1cc(C(=O)O)c(=O)c2cc(Cc3cccc(Cl)c3F)c(Oc3cccnc3)cc21 [Example 4-20, hydrochloride]
2. COCCOc1cc2c(cc1Cc1cccc(Cl)c1F)c(=O)c(C(=O)O)cn2[C@H](CO)C(C)C [Example 4-1]
3. CC(C)[C@@H](CO)n1cc(C(=O)O)c(=O)c2cc(Cc3cccc(Cl)c3F)c(OCc3ccc(C(=O)O)cc3)cc21 [Example 4-57]

1: 8.03; 2: 8.36; 3: 8.42

Answer with reported pIC50 of CC(C)[C@@H](CO)n1cc(C(=O)O)c(=O)c2cc(Cc3cccc(Cl)c3F)c(N3CCSCC3)cc21 [Example 4-32] 8.15
